z-score values, listed per item
# procedureText: E. coli acrAB mutant growth effects, primary screen, E. coli filamentation inducers, strain DRC39, OD650, 24 h (AID 1178);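 further: growth measured as culture turbidity by optical density at 650 nm; test concentration not given here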
# assayConditions: higher = more signal, called active from +8 up or from −8 down
I only need the number, thanks.

The examples below pair each entry with its known result.
Query: Fill in z-score for record COC(=O)[C@H](C)NC(=O)CCC1CC(OC(=O)NCc2ccc3c(c2)OCO3)CC2(CCCC(COC(=O)NCCC(C)C)O2)O1 (some centres undefined)
Response: 0.909

Query: Given "CC(CCN1CCCc2nc(C)c(C)cc21)=NO[C@H](C)c1cn([C@H](CO)Cc2ccccc2)nn1" , respond with its z-score.
Response: -0.801

Query: Determine its reported z-score: "O=C1C=C[C@@H](O)[C@@H]2[C@@H]3C(=O)N(Cc4ccc5c(c4)OCO5)C(=O)[C@@H]3CC[C@@H]12"
Response: 0.207

---
Query: For the compound "CC(C)(C)N1C(=O)[C@H]2[C@H]3[C@H](O)[C@H](O)CC(=NNC(=O)OCc4ccccc4)[C@H]3CC[C@H]2C1=O" , give its reported z-score.
Response: 0.352

----------
# testedTarget: Calmodulin-1 (Homo sapiens)
# procedureText: calcium-bound CALM1 binders on microarrays, profiling panel, artefact control for SMM control-protein annotation, biochemical, small-molecule microarray, Cy5-labelled CALM1, plus calcium (AID 1112);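 further: score merges spot fluorescence with signal to noise from triplicate slides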
# assayConditions: Cy5-CALM1 binding fluorescence, higher = more signal
Note to self: class labels come from recorded composite z-score, ranges listed here: b0 (below -0.5), b1 (-0.5 to below -0.2), b2 (-0.2 or more)

Query: Assign a bin to "CC(=O)OC[C@H]1O[C@H](CC=NO[C@H](C)c2cn([C@@H]3COC[C@H]3O)nn2)C=C[C@@H]1OC(C)=O"
Response: b0

Query: Bin this entry: "COC(=O)[C@@H]1CC[C@H](C)[C@@H](c2ccc(Br)cc2)N1C[C@@H](O)CN=[N+]=[N-]"
Response: b1

Query: Field: class (composite z-score) — entry: "CCN1C(=O)[C@H]2[C@H]3[C@H](O)[C@H](O)CC(=NO[C@H](C)c4cn([C@H](CO)Cc5ccccc5)nn4)[C@@H]3CC[C@H]2C1=O"
Response: b2

----------
# procedureText: basal 3T3-L1 adipocyte mitochondrial potential changes, profiling panel, cell-based, JC-1 fluorescence, 3T3-L1 adipocytes, 24 h, 100 nL compound (AID 1168); further: test concentration not given here
# assayConditions: JC-1 mitochondrial fluorescence, higher = more signal, called active from +8 up or from −8 down
Reported values of z-score for individual entries
Lab note: record just the number, no unit beside it.

Recorded results for 5 molecules are shown here.
Query: Return the recorded z-score value; entry: "CC(C)=NO[C@@H](C)c1cn([C@H](CO)Cc2ccccc2)nn1"
Response: 0.0209

Query: Note z-score for the molecule shown: "C#CCCCON=C1C[C@@H](O)[C@@H](O)[C@@H]2[C@@H]3C(=O)N([C@@H](C)c4ccccc4)C(=O)[C@@H]3CC[C@@H]12"
Response: -0.377

Query: Fill in z-score for record COC(=O)[C@H](C)NC(=O)CCC1CC(OC(=O)NCCc2ccc(F)cc2)CC2(CCCC(COC(=O)NCCOc3ccccc3)O2)O1 (some centres undefined)
Response: 0.00171

Query: Give reported z-score value for "COc1ccc(OC[C@@H](CO)OC)cc1"
Response: -0.321

Query: Give the reported value of z-score for this record: Cc1cc2c(nc1C)CCCCN2CC(O)CN1CCCc2nc(-c3ccc(Br)cc3)ccc21 (centres undefined)
Response: -0.16

Continuing:
Query: Please list z-score recorded for the molecule "C[C@H]1CC[C@@H](C(=O)O)N[C@@H]1c1ccc(C#Cc2ccccc2)cc1"
Response: -0.272

Query: Recall and state the measured z-score for C[C@@H]1CC[C@H]2C(=O)OC(CN3C(=O)c4ccccc4C3=O)CN2[C@H]1c1ccc(Br)cc1 (some centres undefined) .
Response: -0.105

Query: Tell us which z-score value is on record for "CO[C@@H]1COC(=O)CC=C[C@H](C)[C@H](OC)COC(=O)[C@@H]2CCCN2C(=O)CC=C[C@H]1C"
Response: 0.332

Query: State its z-score for this molecule: "CON=C1c2cc(OC)ccc2O[C@H](c2cccc(OC)c2)[C@H]1O"
Response: -0.672
